- System: PC-3
- Experimental Protocol: Cytotoxicity in human PC3 cells assessed as reduction in cell viability incubated for 72 hrs by CCK8 assay
- Type: functional, cell-based
- Stated Conditions: PC-3, 72 h
Overview of recorded IC50 for various compounds
Entry rule: numbers only, all in µM.

Here is how some compounds turned out for IC50.
INSERT INTO assay_data (compound, test_value) VALUES
  ('COC(=O)C1CCCN1C(=O)[C@]12CC[C@@H](C)[C@H](C)[C@H]1C1=CC[C@@H]3[C@@]4(C)C[C@@H](OC(C)=O)[C@H](OC(C)=O)[C@@](C)(COC(C)=O)[C@@H]4CC[C@@]3(C)[C@]1(C)CC2 (some centres undefined)', 9.2),
  ('COC(=O)C(C)NC(=O)[C@]12CC[C@@H](C)[C@H](C)[C@H]1C1=CC[C@@H]3[C@@]4(C)C[C@@H](OC(C)=O)[C@H](OC(C)=O)[C@@](C)(COC(C)=O)[C@@H]4CC[C@@]3(C)[C@]1(C)CC2 (some centres undefined)', 10.1),
  ('C[C@H]1[C@H](C)CC[C@]2(C(=O)O)CC[C@]3(C)C(=CC[C@@H]4[C@@]5(C)C[C@@H](O)[C@H](O)[C@@](C)(CO)[C@@H]5CC[C@]43C)[C@H]12 [ASIATIC ACID]', 53.6);

The record that follows has no IC50 shown yet.
Asked: Recall and state the measured IC50 for CC(=O)OC[C@@]1(C)[C@@H]2CC[C@]3(C)[C@H](CC=C4[C@@H]5[C@@H](C)[C@H](C)CC[C@]5(C(=O)O)CC[C@]43C)[C@@]2(C)C[C@@H](OC(C)=O)[C@@H]1OC(C)=O .
Given back: 17.5

----------
- Tested on: AGS
- Experimental Protocol: Cytotoxicity in human AGS cells assessed as reduction in cell viability incubated for 24 hrs by MTT assay
- Type: functional, cell-based
Overview of recorded pIC50 for various compounds
As a rule, pIC50 stands for the negative log10 of the concentration, concentration in M.

Here is how some compounds turned out for pIC50.
INSERT INTO measurements (given_smiles, test_value) VALUES
  ('C[C@H]1[C@H](C)CC[C@]2(C(=O)NCCN)CC[C@]3(C)C(=CC[C@@H]4[C@@]5(C)CC[C@H](O)C(C)(C)[C@@H]5CC[C@]43C)[C@H]12', 4.75),
  ('C[C@H]1[C@H](C)CC[C@]2(C(=O)NCCCCN)CC[C@]3(C)C(=CC[C@@H]4[C@@]5(C)CC[C@H](O)C(C)(C)[C@@H]5CC[C@]43C)[C@H]12', 4.76),
  ('CC(=O)O[C@H]1CC[C@]2(C)[C@H]3CC=C4[C@@H]5[C@@H](C)[C@H](C)CC[C@]5(C(=O)NCCCCCCN)CC[C@@]4(C)[C@]3(C)CC[C@H]2C1(C)C', 4.89);

The record that follows has no pIC50 shown yet.
Asked: Recall and state the measured pIC50 for C[C@H]1[C@H](C)CC[C@]2(C(=O)NCCCCCCN)CC[C@]3(C)C(=CC[C@@H]4[C@@]5(C)CC[C@H](O)C(C)(C)[C@@H]5CC[C@]43C)[C@H]12 .
Given back: 4.78

----------
Overview of recorded IC50 for various compounds
- Test system: NCI-H446
- Experimental Protocol: Cytotoxicity in human NCI-H446 cells assessed as reduction in cell viability incubated for 24 hrs by MTT assay
- Assay type: functional, cell-based
- Stated Conditions: NCI-H446, 24 h
Entry rule: numbers only, all in µM.

Asked: Provide measured IC50 on NCI-H446 for C[C@@H]1CC[C@]2(C(=O)O)CC[C@]3(C)C(=CC(=O)[C@@H]4[C@@]5(C)CC[C@H](O)[C@](C)(CO)[C@@H]5CC[C@]43C)[C@@H]2[C@]1(C)O please.
Given back: 11.4

Asked: Provide measured IC50 on NCI-H446 for CC(=O)OC[C@]1(C)[C@@H]2CC[C@]3(C)[C@H](C(=O)C=C4[C@H]5[C@](C(=O)OCC(=O)N/N=C/c6ccccc6)(CC[C@@H](C)[C@@]5(C)O)CC[C@]43C)[C@@]2(C)CC[C@@H]1OC(C)=O please.
Given back: 11.7

Asked: Provide measured IC50 on NCI-H446 for CC(=O)OC[C@]1(C)[C@@H]2CC[C@]3(C)[C@H](C(=O)C=C4[C@H]5[C@](C(=O)OCC(=O)N/N=C/c6ccc(C)cc6)(CC[C@@H](C)[C@@]5(C)O)CC[C@]43C)[C@@]2(C)CC[C@@H]1OC(C)=O please.
Given back: 15

Asked: Provide measured IC50 on NCI-H446 for COC(=O)C(CO)NC(=O)[C@]12CC[C@@H](C)[C@@](C)(O)[C@H]1C1=CC(=O)[C@@H]3[C@@]4(C)CC[C@H](OC(C)=O)[C@](C)(COC(C)=O)[C@@H]4CC[C@@]3(C)[C@]1(C)CC2 (stereo partly specified) please.
Given back: 3.84

Asked: Provide measured IC50 on NCI-H446 for C[C@@H]1CC[C@]2(C(=O)NC(Cc3c[nH]c4ccccc34)C(=O)O)CC[C@]3(C)C(=CC(=O)[C@@H]4[C@@]5(C)CC[C@H](O)[C@](C)(CO)[C@@H]5CC[C@]43C)[C@@H]2[C@]1(C)O (stereo partly specified) please.
Given back: 11.3

----------
- Tested on: MCF7
- Experimental Protocol: Cytotoxicity in human MCF7 cells assessed as reduction in cell viability incubated for 48 hrs by SRB assay
- Type: functional, cell-based
- Stated Conditions: MCF7, 48 h
Overview of recorded GI50 for various molecules
Entry rule: numbers only, all in µM.

INSERT INTO results (given_smiles, test_value) VALUES
  ('C[C@H]1[C@H](C)CC[C@]2(C(=O)O)CC[C@]3(C)C(=CC[C@@H]4[C@@]5(C)CC[C@H](O)C(C)(C)[C@@H]5CC[C@]43C)[C@H]12', 21),
  ('C[C@H]1[C@H](C)CC[C@]2(C(=O)O)CC[C@]3(C)C(=CC[C@@H]4[C@@]5(C)C[C@@H](O)[C@H](O)C(C)(C)[C@@H]5CC[C@]43C)[C@H]12', 18.5),
  ('COc1cccc2c1C(=O)c1c(O)c3c(c(O)c1C2=O)C[C@@](O)(C(=O)CO)C[C@@H]3O[C@H]1C[C@H](N)[C@H](O)[C@H](C)O1', 5.7);

The record that follows has no GI50 shown yet.
Asked: Recall and state the measured GI50 for C[C@H]1[C@H](C)CC[C@]2(C(=O)OCCCn3cc(COC(=O)[C@]45CC[C@@H](C)[C@H](C)[C@@H]4C4=CC[C@@H]6[C@@]7(C)C[C@H](O)[C@H](O)C(C)(C)[C@@H]7CC[C@]6(C)[C@]4(C)CC5)cn3)CC[C@]3(C)C(=CC[C@@H]4[C@@]5(C)CC[C@H](O)C(C)(C)[C@@H]5CC[C@]43C)[C@H]12 .
Given back: 12

----------
Overview of recorded pIC50 for various compounds
- Tested on: MDA-MB-231
- Experimental Protocol: Cytotoxicity in human MDA-MB-231 cells assessed as reduction in cell viability incubated for 96 hrs by SRB assay
- Format: functional, cell-based
- Stated Conditions: MDA-MB-231, 96 h
As a rule, pIC50 stands for the negative log10 of the concentration, concentration in M.

Here is how some compounds turned out for pIC50.
INSERT INTO measurements (given_smiles, measured_parameter, test_value) VALUES
  ('COC(=O)[C@@]1(C)CC[C@]2(C)CC[C@]3(C)C(=CC(=O)[C@@H]4[C@@]5(C)Cc6cn(OC(C)=O)nc6C(C)(C)[C@@H]5CC[C@]43C)[C@H]2C1', 'pIC50', 4.49),
  ('COC(=O)[C@@]1(C)CC[C@]2(C)CC[C@]3(C)C(=CC(=O)[C@@H]4[C@@]5(C)Cc6cn(C(=O)CCC7CCNCC7)nc6C(C)(C)[C@@H]5CC[C@]43C)[C@H]2C1', 'pIC50', 5.02),
  ('CCOC(=O)c1[nH]nc2c1C[C@]1(C)[C@H]3C(=O)C=C4[C@H]5C[C@@](C)(C(=O)OCc6ccccc6)CC[C@]5(C)CC[C@@]4(C)[C@]3(C)CC[C@H]1C2(C)C', 'pIC50', 4.78),
  ('COC(=O)[C@@]1(C)CC[C@]2(C)CC[C@]3(C)C(=CC(=O)[C@@H]4[C@@]5(C)Cc6c(n[nH]c6C(F)(F)F)C(C)(C)[C@@H]5CC[C@]43C)[C@H]2C1', 'pIC50', 4.56);

Asked: Recall and state the measured pIC50 for COC(=O)[C@@]1(C)CC[C@]2(C)CC[C@]3(C)C(=CC(=O)[C@@H]4[C@@]5(C)Cc6c[nH]nc6C(C)(C)[C@@H]5CC[C@]43C)[C@H]2C1 .
Given back: 4.48
